// provenance: patent US11834472B2

Molecular target: T1, human IL-22 (Homo sapiens, UniProt Q9GZX6)
T1 sequence (Q9GZX6 34-179): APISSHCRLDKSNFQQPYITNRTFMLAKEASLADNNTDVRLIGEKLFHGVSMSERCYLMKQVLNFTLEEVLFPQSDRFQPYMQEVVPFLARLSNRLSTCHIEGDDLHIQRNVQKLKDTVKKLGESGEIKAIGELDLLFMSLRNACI
Assay: SPR capture assay, affinity to human IL-22
Format: binding
Details: human IL-22, SPR
Method: The affinity of the 10 antibodies of Table 1 was measured by Surface Plasma Resonance (SPR) using a capture assay in PBS buffer to generate binding curves at four different concentrations of each antibody (0.05, 0.1, 0.5, and 1.0 μg/ml). […] The affinity of the 10 antibodies of Table 1 was measured by Surface Plasma Resonance (SPR) using a capture assay on a SPR-2 instrument (SierraSensiors, Hamburg, Germany). […] The off-rate was measured for 6 minutes. […]
recorded_endpoint: ka (M·s)
Enter your answer as a number in M·s; do not include the unit.

Please give measured ka of the following entry: CPS02: mutant anti-IL-22 antibody binding human and mouse IL-22; light chain LC-06, heavy chain HC-08 (antibody, V domains shown) VH: QVQLVQSGAEVKKPGASVKVSCKASGYIFRSYWIHWIRQPPGKGLEWIGRIYPGTGRTYYNEKFKGRVTISADKSISTAYLQWSSLKASDTAMYYCARSYDSSVAYWGQGTLVTVSS VL: AIQLTQSPSSLSASVGDRVTITCSASSSVSYMHWYLQKPGQSPQLLIYKTRKLASGVPSRFSGSGSGTDFTFTISSLEAEDAATYYCQQWSSNPYITFGQGTKVEIKR
1.87e+06
